tested on: primary rat microglia; experiment: Cell toxicity (dead cells, size <150 μm2) in coated fibrin (cFib) assay; conditions: primary microglia HTS, fibrin assay, dead cells (size <150 μm2), compounds at 10 μM;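 further: share of dead cells sized under 150 µm2 at 10 µM in fibrin-stimulated microglia HTS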
metric: Fibrin % cell toxicity (%)
The answer is to be given in %; state only the numeric part.

The cases that follow already have their Fibrin % cell toxicity on record.
compound | Fibrin % cell toxicity (%)
CCOC(=O)COc1ccc2c(=O)cc(-c3ccccc3)oc2c1 [Efloxate] | 1
CN1C[C@H](C(=O)N[C@]2(C)O[C@@]3(O)[C@@H]4CCCN4C(=O)[C@H](Cc4ccccc4)N3C2=O)C=C2c3cccc4[nH]cc(c34)C[C@H]21 [Ergotamine] | 1

Problem: Consider the compound C[C@H]1c2cccc(O)c2C(=O)C2=C(O)[C@]3(O)C(=O)C(C(N)=O)=C(O)[C@@H](N(C)C)[C@@H]3[C@@H](O)[C@@H]21 . State its measured Fibrin % cell toxicity.
Result: 0
